For each entry below, report its CC50 at 24 h value.
# experimental protocol: Cytotoxicity assay (MTT)
# test parameters: mouse, RAW 264.7 cells, CC50 (median cytotoxic concentration), RAW 264.7 cells, MTT, 24 h, n = 3; >200: CC50 could not be obtained, cell survival rate >98% at 200–6.25 μM

COc1ccc(-c2coc3cc(O)ccc3c2=O)cc1 [Compound 11, formononetin] = 103 µM
COc1ccc(-c2cc3cc(O)c(O)cc3oc2=O)c(OC)c1OC [Compound 6] = > 200 µM
CCCCCC(=O)CCC(=O)OCCc1ccc(O)c(OC)c1 [Compound 5, Homovanillyl-4-oxo-nonanoate] = > 200 µM
COc1ccc(C2COc3cc(OC4OC(CO)C(O)C(O)C4O)ccc3C2O)c(O)c1 (stereo not drawn) [Compound 14] = > 200 µM
O=c1c(-c2ccc(O)cc2)coc2cc(O[C@@H]3O[C@H](CO)[C@@H](O)[C@H](O)[C@H]3O)cc(O)c12 [Compound 13, genistin] = > 200 µM

Now turn to the next compound.
# CC50 at 24 h lookup, item COc1c(O)ccc2c1OC[C@H](c1cc3c(cc1O)OCO3)[C@H]2O [Compound 2]
> 200 µM
